Cited source: patent US20230203059A1

# subject_of_test: JAK3 (Homo sapiens)
# Sequence (P52333 whole entry): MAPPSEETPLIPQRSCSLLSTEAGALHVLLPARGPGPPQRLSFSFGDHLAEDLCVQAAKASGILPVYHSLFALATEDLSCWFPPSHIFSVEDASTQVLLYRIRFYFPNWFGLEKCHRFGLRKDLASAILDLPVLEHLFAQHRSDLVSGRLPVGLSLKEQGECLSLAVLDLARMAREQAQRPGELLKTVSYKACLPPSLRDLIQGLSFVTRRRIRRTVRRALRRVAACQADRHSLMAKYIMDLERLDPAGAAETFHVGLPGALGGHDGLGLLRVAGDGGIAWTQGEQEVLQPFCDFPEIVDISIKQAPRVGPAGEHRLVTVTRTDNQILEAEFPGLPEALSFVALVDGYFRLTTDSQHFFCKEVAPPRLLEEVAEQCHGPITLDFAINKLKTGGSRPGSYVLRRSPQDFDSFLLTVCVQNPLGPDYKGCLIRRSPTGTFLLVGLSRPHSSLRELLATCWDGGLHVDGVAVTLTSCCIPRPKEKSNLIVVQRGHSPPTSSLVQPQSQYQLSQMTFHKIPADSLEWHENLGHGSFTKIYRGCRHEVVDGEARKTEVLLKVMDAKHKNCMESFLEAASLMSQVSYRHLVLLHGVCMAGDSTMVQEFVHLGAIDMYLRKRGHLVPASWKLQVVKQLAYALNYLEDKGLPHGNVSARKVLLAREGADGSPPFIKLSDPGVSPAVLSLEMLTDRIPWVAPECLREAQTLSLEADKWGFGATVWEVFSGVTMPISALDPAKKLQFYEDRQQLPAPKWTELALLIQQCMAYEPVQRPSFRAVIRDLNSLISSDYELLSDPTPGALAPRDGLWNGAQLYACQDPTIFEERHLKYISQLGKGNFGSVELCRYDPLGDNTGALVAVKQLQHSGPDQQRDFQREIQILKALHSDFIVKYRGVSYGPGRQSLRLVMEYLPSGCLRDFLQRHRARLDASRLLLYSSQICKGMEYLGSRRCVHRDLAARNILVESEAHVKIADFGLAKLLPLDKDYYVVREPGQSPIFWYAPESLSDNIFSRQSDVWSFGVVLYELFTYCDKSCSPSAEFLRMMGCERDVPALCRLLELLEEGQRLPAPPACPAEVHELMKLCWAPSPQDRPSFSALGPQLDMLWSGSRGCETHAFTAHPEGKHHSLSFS
# assay_comment: JAK kinase activity, homogeneous time-resolved fluorescence (JAK3 reaction system)
# Assay type: biochemical
# particulars: ATP 2 μM, JAK3 protein 0.04 ng/μL; read-out: JAK 3 activity
pIC50: −log10 of the molar value.
endpoint_name: pIC50

Which pIC50 is reported for this molecule? Cc1cc2ccc1NC(=O)c1ccc(c(N)c1)-c1ccnc(n1)Nc1ccc(OC3CC3)c(c1)CO2 [Example 207]
7.00 to 7.96

Lookup CC1CCNC(=O)c2ccc(c([N+](=O)[O-])c2)-c2ccnc(n2)Nc2ccc(OCC3COC3)c(c2)COC1 (stereo not shown) [Example 174]
5.00 to 6.00

Nc1cc2ccc1-c1ccnc(n1)Nc1ccc(OCc3cccc4c3OCC4)c(c1)COCCCCNC2=O [Example 148] ?
> 8.00

Quick one: CC1CCNC(=O)c2ccc(c(N)c2)-c2ccnc(n2)Nc2ccc(OCC3CCCC3)c(c2)COC1 (stereo not shown) [Example 131]
7.00 to 7.96

And what about the molecule O=C1NCCCCOCc2cc(cc(Cl)c2N2CCOCC2)Nc2nccc(n2)-c2ccc1cc2 [Example 8] ?
7.00 to 7.96

Request: COc1cccc(F)c1COc1ccc2cc1COCCCCNC(=O)c1ccc(c([N+](=O)[O-])c1)-c1ccnc(n1)N2 [Example 171]
5.00 to 6.00

Same thing, different molecule: C[C@H]1CCOCc2cc(ccc2OC2CC2)Nc2nccc(n2)-c2ccc(cc2N)C(=O)NC1 [Example 180]
7.00 to 7.96
